Where do these numbers come from? They come from PubChem BioAssay AID1963840.

Please go through the items and note down their viability, T/C.
Tested on: 695427-040-R-J1-PDC complex spheroid viability
Assay: Anticancer human tumor 695427-040-R-J1-PDC patient-derived colon adenocarcinoma cell line growth inhibition [POLQ]
Conditions: second compound 0.0316 µM; first compound 0.000316 µM; stronger effect = lower value
Note: unit % is implicit; provide only the numeric part.

Ask: Give the value of viability, T/C reported for the following: Cn1ncnc1[C@H]1c2n[nH]c(=O)c3cc(F)cc(c23)N[C@@H]1c1ccc(F)cc1 + Cc1cccc(N(C)C(=O)C2C(O)CCN2c2nc(C)cc(C(F)(F)F)c2C#N)c1
Result: 99.1

Ask: State, in one line, measured viability, T/C of CC[C@@]1(O)C(=O)OCc2c1cc1n(c2=O)Cc2cc3c(CN(C)C)c(O)ccc3nc2-1 + COC1C(OC(N)=O)C(O)C(Oc2ccc3c(O)c(NC(=O)c4ccc(O)c(CC=C(C)C)c4)c(=O)oc3c2C)OC1(C)C
Result: 103

Ask: Provide one value: measured viability, T/C of CC[C@@]1(O)C(=O)OCc2c1cc1n(c2=O)Cc2cc3c(CN(C)C)c(O)ccc3nc2-1 + Nc1ccc(C#CCN(C(=O)Cc2ncc(C(F)(F)F)cc2C(F)(F)F)c2ccc(F)cc2)nn1
Result: 110

Ask: Return the recorded viability, T/C value; entry: Cn1ncnc1[C@H]1c2n[nH]c(=O)c3cc(F)cc(c23)N[C@@H]1c1ccc(F)cc1 + COC1C(OC(N)=O)C(O)C(Oc2ccc3c(O)c(NC(=O)c4ccc(O)c(CC=C(C)C)c4)c(=O)oc3c2C)OC1(C)C
Result: 92

Ask: Retrieve viability, T/C measured for Cn1ncnc1[C@H]1c2n[nH]c(=O)c3cc(F)cc(c23)N[C@@H]1c1ccc(F)cc1 + Nc1ccc(C#CCN(C(=O)Cc2ncc(C(F)(F)F)cc2C(F)(F)F)c2ccc(F)cc2)nn1 and print it.
Result: 109

Ask: Answer with the recorded viability, T/C for the compound listed here: CC[C@@]1(O)C(=O)OCc2c1cc1n(c2=O)Cc2cc3c(CN(C)C)c(O)ccc3nc2-1 + Cc1cccc(N(C)C(=O)C2C(O)CCN2c2nc(C)cc(C(F)(F)F)c2C#N)c1
Result: 110

###

Tested on: 695427-040-R-J1-PDC complex spheroid viability
Experiment: Anticancer human tumor 695427-040-R-J1-PDC cell line growth inhibition [POLQ];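 also: spheroids exposed to compounds for seven days; 100% = DMSO vehicle control viability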
Conditions: second compound 3.16 µM; first compound 3.16 µM; stronger effect = lower value
measurement type: viability, T/C (%)
The reply should be a number in %, with the unit left off.

Ask: Identify the reported viability, T/C for the following entry. CCc1cc2c(N3CCc4c(cc(Cn5ccnc5)cc4-c4cn(C)nc4C(F)(F)F)C3=O)ccnc2c(OC)n1 + COC1C(OC(N)=O)C(O)C(Oc2ccc3c(O)c(NC(=O)c4ccc(O)c(CC=C(C)C)c4)c(=O)oc3c2C)OC1(C)C
Result: 117

Ask: Provide measured viability, T/C value, entry: COc1cccc2c1C(=O)c1c(O)c3c(c(O)c1C2=O)CC(O)(C(=O)CO)CC3OC1CC(N)C(O)C(C)O1 (stereo not given) + Cc1cccc(N(C)C(=O)C2C(O)CCN2c2nc(C)cc(C(F)(F)F)c2C#N)c1
Result: 64.9

Ask: Give the reported viability, T/C for this molecule. Nc1ccn(C2OC(CO)C(O)C2(F)F)c(=O)n1 (stereo not given) + Nc1ccc(C#CCN(C(=O)Cc2ncc(C(F)(F)F)cc2C(F)(F)F)c2ccc(F)cc2)nn1
Result: 83.7

Ask: Please report viability, T/C for the following molecule: CCc1cc2c(N3CCc4c(cc(Cn5ccnc5)cc4-c4cn(C)nc4C(F)(F)F)C3=O)cc(C)nc2c(OC)n1 + Cc1cccc(N(C)C(=O)C2C(O)CCN2c2nc(C)cc(C(F)(F)F)c2C#N)c1
Result: 97.5

Ask: Identify viability, T/C associated with the molecule CC1COCCN1c1cc(-c2ccnn2C)c2ccnc(-c3ccn[nH]3)c2n1 (stereo not given) + Cc1cccc(N(C)C(=O)C2C(O)CCN2c2nc(C)cc(C(F)(F)F)c2C#N)c1
Result: 49
